Recorded viability, T/C by entry
Tested on: 596521-263-R-J1-PDC complex spheroid growth
Protocol: Anticancer human tumor 596521-263-R-J1-PDC patient-derived soft tissue sarcoma cell line growth inhibition [Asc]
Experimental conditions: second compound 0.316 µM; first compound 0.316 µM; active compounds read low
Reported property: viability, T/C

Molecule: O=C(c1cc(Cc2n[nH]c(=O)c3ccccc23)ccc1F)N1CCN(C(=O)C2CC2)CC1 + CNC(C)C(=O)NC1CN(S(=O)(=O)c2cccc(S(=O)(=O)N3CCC4CCC(C(=O)NC(c5ccccc5)c5ccccc5)N4C(=O)C(NC(=O)C(C)NC)C3)c2)CCC2CCC(C(=O)NC(c3ccccc3)c3ccccc3)N2C1=O
Assayed target: 596521-263-R-J1-PDC complex spheroid growth
Reported property: viability, T/C
Measurement: 80.5%

Molecule: O=C(c1ccc(F)c(F)c1Nc1ccc(I)cc1F)N1CC(O)([C@@H]2CCCCN2)C1 + Cc1c(S(C)(=O)=O)c(-c2cc(F)cc(N3CCN(c4ccc(NS(=O)(=O)c5ccc(NC(CCN6CCC(C(=O)OCCCP(=O)(O)O)CC6)CSc6ccccc6)c(S(=O)(=O)C(F)(F)F)c5)cc4)CC3)c2)c(-c2ccc(Cl)cc2)n1C(C)C
Assayed target: 596521-263-R-J1-PDC complex spheroid growth
Reported property: viability, T/C
Measurement: 38.1%

----------
Entries and their viability, T/C values follow.
Tested on: 596521-263-R-J1-PDC complex spheroid growth
Protocol: Anticancer human tumor 596521-263-R-J1-PDC cell line growth inhibition [Asc];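 also: spheroids exposed to compounds for 7 days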
Experimental conditions: second compound 1 µM; first compound 0.1 µM; active compounds read low

Compound: CNC(C)C(=O)NC1CN(S(=O)(=O)c2cccc(S(=O)(=O)N3CCC4CCC(C(=O)NC(c5ccccc5)c5ccccc5)N4C(=O)C(NC(=O)C(C)NC)C3)c2)CCC2CCC(C(=O)NC(c3ccccc3)c3ccccc3)N2C1=O (stereo not drawn) + Cc1c(S(C)(=O)=O)c(-c2cc(F)cc(N3CCN(c4ccc(NS(=O)(=O)c5ccc(NC(CCN6CCC(C(=O)OCCCP(=O)(O)O)CC6)CSc6ccccc6)c(S(=O)(=O)C(F)(F)F)c5)cc4)CC3)c2)c(-c2ccc(Cl)cc2)n1C(C)C
viability, T/C: 64.3%
--
Compound: Cn1ncnc1[C@H]1c2n[nH]c(=O)c3cc(F)cc(c23)N[C@@H]1c1ccc(F)cc1 + CNC(C)C(=O)NC1CN(S(=O)(=O)c2cccc(S(=O)(=O)N3CCC4CCC(C(=O)NC(c5ccccc5)c5ccccc5)N4C(=O)C(NC(=O)C(C)NC)C3)c2)CCC2CCC(C(=O)NC(c3ccccc3)c3ccccc3)N2C1=O
viability, T/C: 58.3%
--
Compound: C=CC(=O)N1CCN(c2nc(=O)n(-c3c(C)ccnc3C(C)C)c3nc(-c4c(O)cccc4F)c(F)cc23)C(C)C1 (stereo not drawn) + Cc1c(S(C)(=O)=O)c(-c2cc(F)cc(N3CCN(c4ccc(NS(=O)(=O)c5ccc(NC(CCN6CCC(C(=O)OCCCP(=O)(O)O)CC6)CSc6ccccc6)c(S(=O)(=O)C(F)(F)F)c5)cc4)CC3)c2)c(-c2ccc(Cl)cc2)n1C(C)C
viability, T/C: 75.9%

----------
System: 596521-263-R-J1-PDC complex spheroid growth
Protocol: Anticancer human tumor 596521-263-R-J1-PDC cell line growth inhibition [Asc];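 also: spheroids exposed to compounds for 7 days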
Experimental conditions: second compound 3.16 µM; first compound 0.01 µM; active compounds read low
Source text: Multicellular complex tumor spheroid response to apoptosis pathway targeting inhibitors Alrizomadlin, Pelcitoclax, and Dasminapant in combination with a variety of drugs and investigational agents in selected tumor cell lines […] Compounds. […] If the clinical Cmax for an agent had not been determined, the highest concentration tested was 10 microM. […]
Simple rule here: viability, T/C less than 60% is True, otherwise False.

Compound: COc1c(OCCCN2CCOCC2)ccc2c3n(c(=NC(=O)c4cnc(N)nc4)nc12)CCN3 + Cc1c(S(C)(=O)=O)c(-c2cc(F)cc(N3CCN(c4ccc(NS(=O)(=O)c5ccc(NC(CCN6CCC(C(=O)OCCCP(=O)(O)O)CC6)CSc6ccccc6)c(S(=O)(=O)C(F)(F)F)c5)cc4)CC3)c2)c(-c2ccc(Cl)cc2)n1C(C)C
Assayed target: 596521-263-R-J1-PDC complex spheroid growth
Label class: False
//
Compound: CCN1CCN(Cc2ccc(Nc3ncc(F)c(-c4cc(F)c5nc(C)n(C(C)C)c5c4)n3)nc2)CC1 + Cc1c(S(C)(=O)=O)c(-c2cc(F)cc(N3CCN(c4ccc(NS(=O)(=O)c5ccc(NC(CCN6CCC(C(=O)OCCCP(=O)(O)O)CC6)CSc6ccccc6)c(S(=O)(=O)C(F)(F)F)c5)cc4)CC3)c2)c(-c2ccc(Cl)cc2)n1C(C)C
Assayed target: 596521-263-R-J1-PDC complex spheroid growth
Label class: False
//
Compound: Cn1ncnc1[C@H]1c2n[nH]c(=O)c3cc(F)cc(c23)N[C@@H]1c1ccc(F)cc1 + Cc1c(S(C)(=O)=O)c(-c2cc(F)cc(N3CCN(c4ccc(NS(=O)(=O)c5ccc(NC(CCN6CCC(C(=O)OCCCP(=O)(O)O)CC6)CSc6ccccc6)c(S(=O)(=O)C(F)(F)F)c5)cc4)CC3)c2)c(-c2ccc(Cl)cc2)n1C(C)C
Assayed target: 596521-263-R-J1-PDC complex spheroid growth
Label class: True
//
Compound: CNC(C)C(=O)NC1CN(S(=O)(=O)c2cccc(S(=O)(=O)N3CCC4CCC(C(=O)NC(c5ccccc5)c5ccccc5)N4C(=O)C(NC(=O)C(C)NC)C3)c2)CCC2CCC(C(=O)NC(c3ccccc3)c3ccccc3)N2C1=O (stereo unspecified) + Cc1c(S(C)(=O)=O)c(-c2cc(F)cc(N3CCN(c4ccc(NS(=O)(=O)c5ccc(NC(CCN6CCC(C(=O)OCCCP(=O)(O)O)CC6)CSc6ccccc6)c(S(=O)(=O)C(F)(F)F)c5)cc4)CC3)c2)c(-c2ccc(Cl)cc2)n1C(C)C
Assayed target: 596521-263-R-J1-PDC complex spheroid growth
Label class: True
//
Compound: O=C(c1ccc(F)c(F)c1Nc1ccc(I)cc1F)N1CC(O)([C@@H]2CCCCN2)C1 + Cc1c(S(C)(=O)=O)c(-c2cc(F)cc(N3CCN(c4ccc(NS(=O)(=O)c5ccc(NC(CCN6CCC(C(=O)OCCCP(=O)(O)O)CC6)CSc6ccccc6)c(S(=O)(=O)C(F)(F)F)c5)cc4)CC3)c2)c(-c2ccc(Cl)cc2)n1C(C)C
Assayed target: 596521-263-R-J1-PDC complex spheroid growth
Label class: False

----------
The following compounds are listed with their measured viability, T/C values.
System: 596521-263-R-J1-PDC complex spheroid growth
Protocol: Anticancer human tumor 596521-263-R-J1-PDC cell line growth inhibition [Asc];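 also: spheroids exposed to compounds for 7 days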
Experimental conditions: second compound 0.316 µM; first compound 0.0316 µM; active compounds read low
Excerpt: Multicellular complex tumor spheroid response to apoptosis pathway targeting inhibitors Alrizomadlin, Pelcitoclax, and Dasminapant in combination with a variety of drugs and investigational agents in selected tumor cell lines […] Compounds. […] If the clinical Cmax for an agent had not been determined, the highest concentration tested was 10 microM. […]
Reported property: viability, T/C

Compound: CCN1CCN(Cc2ccc(Nc3ncc(F)c(-c4cc(F)c5nc(C)n(C(C)C)c5c4)n3)nc2)CC1 + CNC(C)C(=O)NC1CN(S(=O)(=O)c2cccc(S(=O)(=O)N3CCC4CCC(C(=O)NC(c5ccccc5)c5ccccc5)N4C(=O)C(NC(=O)C(C)NC)C3)c2)CCC2CCC(C(=O)NC(c3ccccc3)c3ccccc3)N2C1=O
Reported property: viability, T/C
Measurement: 74.8%

Compound: Cn1ncnc1[C@H]1c2n[nH]c(=O)c3cc(F)cc(c23)N[C@@H]1c1ccc(F)cc1 + Cc1c(S(C)(=O)=O)c(-c2cc(F)cc(N3CCN(c4ccc(NS(=O)(=O)c5ccc(NC(CCN6CCC(C(=O)OCCCP(=O)(O)O)CC6)CSc6ccccc6)c(S(=O)(=O)C(F)(F)F)c5)cc4)CC3)c2)c(-c2ccc(Cl)cc2)n1C(C)C
Reported property: viability, T/C
Measurement: 75.5%

----------
Tested on: 596521-263-R-J1-PDC complex spheroid growth
Protocol: Anticancer human tumor 596521-263-R-J1-PDC cell line growth inhibition [Asc];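 also: spheroids exposed to compounds for 7 days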
Experimental conditions: second compound 1 µM; first compound 10 µM; active compounds read low
Reported property: viability, T/C (%)

Molecule: C#Cc1c(F)ccc2cc(O)cc(-c3ncc4c(N5CC6CCC(C5)N6)nc(OCC56CCCN5CC(F)C6)nc4c3F)c12 (centres undefined) + CNC(C)C(=O)NC1CN(S(=O)(=O)c2cccc(S(=O)(=O)N3CCC4CCC(C(=O)NC(c5ccccc5)c5ccccc5)N4C(=O)C(NC(=O)C(C)NC)C3)c2)CCC2CCC(C(=O)NC(c3ccccc3)c3ccccc3)N2C1=O
Assayed target: 596521-263-R-J1-PDC complex spheroid growth
Reported property: viability, T/C
Measurement: 58.7
--
Molecule: O=C(c1cc(Cc2n[nH]c(=O)c3ccccc23)ccc1F)N1CCN(C(=O)C2CC2)CC1 + Cc1c(S(C)(=O)=O)c(-c2cc(F)cc(N3CCN(c4ccc(NS(=O)(=O)c5ccc(NC(CCN6CCC(C(=O)OCCCP(=O)(O)O)CC6)CSc6ccccc6)c(S(=O)(=O)C(F)(F)F)c5)cc4)CC3)c2)c(-c2ccc(Cl)cc2)n1C(C)C
Assayed target: 596521-263-R-J1-PDC complex spheroid growth
Reported property: viability, T/C
Measurement: 37.7
--
Molecule: O=C(c1cc(Cc2n[nH]c(=O)c3ccccc23)ccc1F)N1CCN(C(=O)C2CC2)CC1 + CNC(C)C(=O)NC1CN(S(=O)(=O)c2cccc(S(=O)(=O)N3CCC4CCC(C(=O)NC(c5ccccc5)c5ccccc5)N4C(=O)C(NC(=O)C(C)NC)C3)c2)CCC2CCC(C(=O)NC(c3ccccc3)c3ccccc3)N2C1=O
Assayed target: 596521-263-R-J1-PDC complex spheroid growth
Reported property: viability, T/C
Measurement: 31.3
--
Molecule: C#Cc1c(F)ccc2cc(O)cc(-c3ncc4c(N5CC6CCC(C5)N6)nc(OCC56CCCN5CC(F)C6)nc4c3F)c12 (centres undefined) + Cc1c(S(C)(=O)=O)c(-c2cc(F)cc(N3CCN(c4ccc(NS(=O)(=O)c5ccc(NC(CCN6CCC(C(=O)OCCCP(=O)(O)O)CC6)CSc6ccccc6)c(S(=O)(=O)C(F)(F)F)c5)cc4)CC3)c2)c(-c2ccc(Cl)cc2)n1C(C)C
Assayed target: 596521-263-R-J1-PDC complex spheroid growth
Reported property: viability, T/C
Measurement: 60.5
